test system: A375-GP cells (Dabrafenib-resistant); test: Kinase inhibitor library screening, PrestoBlue cell viability, 1 or 10 μM, 72 h; settings: A375 GP, 10μΜ; in %
As shown below, each of these molecules has a reported cell viability (kinase inhibitor library screening) value.
RECORDED METRIC: cell viability (kinase inhibitor library screening)

> print(dat)
                                   molecule  meas.value
1  COc1cc(Nc2ncc(F)c(Nc3ccc4c(n3)N(COP(=O)(O)O)C(=O)C(C)(C)O4)n2)cc(OC)c1OC        49.0
2  CN(C)CCOc1ccc(-c2nc(-c3ccncc3)c(-c3ccc4c(c3)CC/C4=N\O)[nH]2)cc1        25.8
3  FC(F)(F)c1ccc(Nc2nc3ccc(Oc4ccnc(-c5ncc(C(F)(F)F)[nH]5)c4)cc3[nH]2)cc1        60.2
4  CCCNC(=O)Nc1ccc(Oc2ncnc3cc(OC)c(OC)cc23)cc1Cl        89.8
5  Cc1nc(Nc2ncc(C(=O)Nc3c(C)cccc3Cl)s2)cc(N2CCN(CCO)CC2)n1        48.1
6  COc1cc2nccc(Oc3ccc(NC(=O)Nc4cc(C)on4)c(Cl)c3)c2cc1OC        54.4
7  Cl.Cl.Clc1ccc(Nc2nnc(Cc3ccncc3)c3ccccc23)cc1 [Vatalanib dihydrochloride (PTK787)]        92.3

* * *

system: 501Mel-GP cells (Dabrafenib-resistant); experiment: Kinase inhibitor library screening, PrestoBlue cell viability, 1 or 10 μM, 72 h; settings: 501Mel GP; 10μΜ; 72 h; in %
Label T when cell viability, 501Mel GP, 10μΜ is strictly below 90; otherwise label F.

> print(dat)
                                   compound                           system.tested  category
1  O=C(NOCC1CC1)c1ccc(F)c(F)c1Nc1ccc(I)cc1Cl  501Mel-GP cells (Dabrafenib-resistant)         T
2  CNC(=O)c1ccccc1Nc1nc(Nc2ccc(N3CCOCC3)cc2OC)ncc1Cl  501Mel-GP cells (Dabrafenib-resistant)         T
3  C[C@@H]1CCN(C(=O)CC#N)C[C@@H]1N(C)c1ncnc2[nH]ccc12.O=C(O)CC(O)(CC(=O)O)C(=O)O [Tofacitinib citrate (CP-690550 citrate)]  501Mel-GP cells (Dabrafenib-resistant)         F
4  C#Cc1cccc(Nc2ncnc3cc(OCCOC)c(OCCO)cc23)c1 [OSI-420 (Desmethyl Erlotinib)]  501Mel-GP cells (Dabrafenib-resistant)         T
5  CN1CCN(c2ccc3nc(-c4c(N)c5c(F)cccc5[nH]c4=O)[nH]c3c2)CC1  501Mel-GP cells (Dabrafenib-resistant)         T

* * *

tested on: IGR37-XP cells (Vemurafenib-resistant); assay: Dose-response curves and IC50, PrestoBlue cell viability, 72 h; settings: Homo sapiens, 72 h, read-out: Half-maximal inhibitory concentration (IC50)
Measured IC50 values are reported for all entries that follow.
RECORDED METRIC: IC50 (µM)

> print(dat)
                               input.smiles  meas.value
1  CCc1cnn2c(NCc3ccc[n+]([O-])c3)cc(N3CCCC[C@H]3CCO)nc12      0.0102
2  O=C(O)c1ccc2c(c1)nc(Nc1cccc(Cl)c1)c1ccncc12         6.1
3  C[C@@H](Oc1cc(-c2cnn(C3CCNCC3)c2)cnc1N)c1c(Cl)ccc(F)c1Cl        5.94
4  NC1(c2ccc(-c3nc4ccn5c(=O)[nH]nc5c4cc3-c3ccccc3)cc2)CCC1        5.08
5  NC(=O)Nc1cc(-c2cccc(F)c2)sc1C(=O)N[C@H]1CCCNC1       0.058

Values compiled from paper PMC6364417.
